experiment: in vitro; format: cell-based, human; details: human; non-cancerous cell line, MTT, 72 h; read-out: Cytotoxicity IC50 Hek-293
# IC50 at 72 h values compiled below
Value type: IC50 at 72 h (µg/mL)

>>> observed("CCCCCCCCCCCCCCCC[n+]1ccc(C=CC=Cc2cc3c4c(c2)CCCN4CCC3)cc1.[Br-]")
1.5
>>> observed("CCCCCCCCCCCC[n+]1ccc(C=Cc2cc3c4c(c2)CCCN4CCC3)cc1.[Br-]")
0.012
>>> observed("CCCCCCCCCCCC[n+]1ccc(C=Cc2cc(OC)c(OC)c(OC)c2)cc1.[Br-]")
0.22
